- Test system: UACC-257 melanoma
- ASSAY COMMENT: NCI tumour cell line growth inhibition, 48 h
MEASURE NAME: TGI (µM)
Answers are plain numbers, in µM.

Use these answered entries as a reference point.
| MOLECULE | STUDY TARGET | MEASURE NAME | READING UNIT | RECORDED NUMBER |
| --- | --- | --- | --- | --- |
| CCCCCCOc1ccc(NC2=C(Cl)C(=O)c3cccnc3C2=O)cc1 | UACC-257 melanoma | TGI | µM | 5.21 |
| O=S(=O)(NC(=S)Nc1ccccc1)c1ccc(N2N=C3c4ccccc4CC3C2c2cccs2)cc1 (centres undefined) | UACC-257 melanoma | TGI | µM | 79.9 |
| C/C=C(\C)C(=O)O[C@@H]1C(O)[C@H]2OC(COC(=O)CCC(=O)CCCCCC[C@H](CCCCC)O[C@@H]3OC(C)[C@H](OC(C)=O)C(O)[C@H]3O2)[C@H]1OC(=O)/C=C/c1ccccc1 (some centres undefined) | UACC-257 melanoma | TGI | µM | 1.04 |
| CN1CCN(CC(=O)Nc2ccc3ncnc(Nc4ccc(Oc5cccc(C(F)(F)F)c5)c(Cl)c4)c3c2)CC1 | UACC-257 melanoma | TGI | µM | 3.79 |

Pending molecule:
Exercise: Which TGI is reported for this molecule? "c1ccc2nc3[nH]c4ccccc4c3cc2c1"
Key: 2.47

* * *

- Tested on: MDA-N
- ASSAY COMMENT: NCI tumour cell line growth inhibition, 48 h
MEASURE NAME: TGI

| COMPOUND | TGI |
| --- | --- |
| CCc1cccc(CC)c1NC(=S)NC(=O)c1ccc(Br)cc1 | > 100 µM |

Please report TGI for every entry that follows.
1. COc1cc(/C=C2\N=C(c3ccccc3)N(C3Nc4cc5c(cc4S3)NC(N3C(=O)/C(=C/c4cc(OC)c(OC)c(OC)c4)N=C3c3ccccc3)S5)C2=O)cc(OC)c1OC (centres undefined)
2. O=C1Oc2ccccc2C(=O)/C1=C/N1C(=O)/C(=C/c2ccc([N+](=O)[O-])cc2)SC1=S
3. O=C1CN(c2ccc(Cl)cc2)C(=O)CN1CCN1CC(=O)N(c2ccc(Cl)cc2)CC1=O
4. C=C1CC/C=C(/C(=O)O)CC[C@H]2[C@@H]1CC2(C)C

Key:
1. > 100 µM
2. 46.7 µM
3. > 100 µM
4. > 100 µM

Could you tell me TGI for each of these compounds? They are listed below.
1. CC(=O)Oc1ccn2nc(C)c(Br)c2c1Br
2. Cc1cccc2sc(NC(=O)c3cc([N+](=O)[O-])ccc3Cl)nc12
3. Oc1ccc(-c2nc3cc(C(F)(F)F)ccc3n2CC2CCCN3CCCCC23)cc1 (centres undefined)
4. CCOC(=O)CCC(C(=O)OCC)n1nc2ccc(Nc3c(C)[n+]([O-])c4cc(Cl)ccc4[n+]3[O-])cc2n1 (centres undefined)

Key:
32.6 µM
3.69 µM
29.7 µM
> 100 µM

* * *

- Test system: RPMI-8226 leukemia
- ASSAY COMMENT: NCI tumour cell line growth inhibition, 48 h
MEASURE NAME: TGI

See these solved cases before continuing.
| COMPOUND | TGI |
| --- | --- |
| C=C(CN(CC(=C)C(=O)c1ccccc1)C(C)(C)C)C(=O)c1ccccc1 | 68.4 µM |
| O=C1/C(=C/c2ccccc2)SC(=Nc2ccccc2)N1Nc1ccccc1 | 27.4 µM |
| NCCNCC(O)CO (centres undefined) | > 100 µM |
| O=C(O)c1c(-c2c3ccc(=O)cc-3oc3cc(O)ccc23)cc2ccccc2c1-c1ccccc1 | > 100 µM |
| COC(=O)[C@]12CC[C@@H](C)[C@H](C)[C@@H]1C1=CC[C@@H]3[C@@]4(C)C(C=O)=C[C@@](C)(COC(C)=O)[C@@H]4[C@H](O)C[C@@]3(C)[C@]1(C)CC2 | 4.55 µM |
| COc1ccc(-c2cnc(-c3ccc(F)cc3)[nH]2)cc1 | > 27.2 µM |
| Cc1ccc(S(=O)(=O)CNC(=S)CCCC(=S)NCS(=O)(=O)c2ccc(C)cc2)cc1 | > 100 µM |
| CN(C)CCNC(=O)c1cccc2cc3ccccc3nc12 | > 25.2 µM |

For every record below, what is its TGI?
1. CC(CN)[C@@H]1CC[C@]2(CO)CC[C@]3(C)[C@H](CC[C@@H]4[C@@]5(C)CCC(NCCO)C(C)(C)[C@@H]5CC[C@]43C)[C@@H]12 (some centres undefined)
2. CCc1cccc(CC)c1NC(=S)NC(=O)c1ccc(Br)cc1
3. CCOP(=O)(CC(=O)C1=C(O)C(CCCNC(=O)OC(C)(C)C)N(Cc2ccc(OC)c(OC)c2)C1=O)OCC (centres undefined)
4. CN1N=C2c3ccccc3CC[C@H]2C1c1ccccc1 (some centres undefined)
5. Cc1cc(O)c2c(c1)C(=O)c1cc(O)cc(O)c1C2=O
6. Nc1ccn([C@H]2C[C@@H](O)[C@@H](CO)S2)c(=O)n1
7. CCCCn1c2c(c3ccccc3c1=O)C(=O)c1ccccc1-2
8. CC1=C(C(=O)Nc2ccccc2C)C(c2ccc([N+](=O)[O-])cc2)C(C(=O)Nc2ccccc2C)=C(C)N1

Key:
1: 4.5 µM; 2: > 100 µM; 3: > 100 µM; 4: > 100 µM; 5: 99.8 µM; 6: > 100 µM; 7: > 100 µM; 8: > 100 µM

// for each compound in input: emit TGI
1. CCOC(=O)CCC(C(=O)OCC)n1nc2ccc(Nc3c(C)[n+]([O-])c4cc(Cl)ccc4[n+]3[O-])cc2n1 (centres undefined)
2. COC(=O)C1=C(C(=O)OC)C23C=CC=CC24C(C(=O)OC)=C(C(=O)OC)C4C1C3 (centres undefined)

Key:
["> 100 µM", "> 100 µM"]

* * *

- System: MALME-3M melanoma
- ASSAY COMMENT: NCI tumour cell line growth inhibition, 48 h
Quick rule for you: TGI at 40 µM or higher means label 1, lower means label 0.

Examples with answers:
| COMPOUND | LABEL CLASS |
| --- | --- |
| C=CCNC1=C(C(=O)OCC)C(=O)CO1 | label 1 |
| CC[N+](CC)=c1ccc2nc3c(cc(NCc4ccccc4)c4ccccc43)oc-2c1 | label 0 |
| COc1cc(/C=C/C(=O)c2cc(F)c(Cl)cc2Cl)cc(OC)c1OC | label 0 |

Exercise: Confirm if TGI reported for the compound FC(F)(F)c1ccc2c(c1)nc(Cc1ccccc1)n2C[C@@H]1CCCN2CCCCC12 (some centres undefined) is 40 µM or above.
Key: label 0

Exercise: Does "Cc1cc(O)c2c(c1)C(=O)c1cc(O)cc(O)c1C2=O" have a reported TGI of at least 40 µM?
Key: label 1

Exercise: Exam item: decide whether the reported TGI for "Cc1ccc(/C=C2\NC(=S)N(CN3CCOCC3)C2=O)cc1" is at least 40 µM.
Key: label 1

Exercise: Reported TGI at or above 40 µM? "O=[N+]([O-])c1ccc(/C=C/c2ccc(N=Nc3ccc(/C=C/c4ccc([N+](=O)[O-])cc4S(=O)(=O)O)c(S(=O)(=O)O)c3)cc2S(=O)(=O)O)c(S(=O)(=O)O)c1"
Key: label 1

Exercise: Given "O=C(Oc1ccc([N+](=O)[O-])cc1)N1CCN(Cc2cccc(Oc3ccccc3)c2)CC1" , state whether its TGI is at least 40 µM.
Key: label 1

* * *

Exercise: state measured GI50 for each of the compounds provided.
- Tested on: EKVX NSCLC
- ASSAY COMMENT: NCI tumour cell line growth inhibition, 48 h

| SMILES DATA | RESULT |
| --- | --- |
| C=C(CNCCc1ccc(O)cc1)[C@@H]1CC[C@]2(CO)CC[C@]3(C)[C@H](CC[C@@H]4[C@@]5(C)CCC(=O)C(C)(C)[C@@H]5CC[C@]43C)[C@@H]12 | 1700 nM |
| O=C(Nc1cnn2ccc(N3CCC[C@@H]3c3cc(F)ccc3F)nc12)N1CC[C@H](O)C1 | > 100000 nM |
| CCOC(=O)/C=C1\SC(=Nc2ccc(C#N)cc2)N(CCN2C(=O)/C(=C/C(=O)OCC)SC2=Nc2ccc(C#N)cc2)C1=O | 5200 nM |
| Cn1ccc(=Nc2ccc(NC(=O)c3ccc(N=c4ccn(C)c5ccc([N+](=O)[O-])cc45)cc3)cc2)cc1 | 55100 nM |
| C=C(CN1CCN(c2cccc(C(F)(F)F)c2)CC1)c1ccc(C(=O)Nc2ccccc2N)cc1 | 2920 nM |
| O=C1c2cccnc2-c2nc(/C=C/c3ccccc3)cc3c2c1nc1ccccc13 | 2820 nM |

Answer for every listed entry: what is its GI50? The entries follow.
1. O=c1cccc(C#Cc2ccccc2)o1
2. CCCCCCCCOc1ccc(/C=N/Nc2cc(C)nc3ccc(Cl)cc23)cc1

Key:
["5210 nM", "1800 nM"]
